# Experiment description: AUC in CD1 mouse at 3 mg/kg, po measured up to 24 hrs
# Type: ADME, organism-based
# Set-up: route oral, dose 3 mg/kg, time <=24
# Conditions used: in vivo
Parameter: AUC at 24 h (ng·h/mL)
Give just the number in ng·h/mL; leave the unit off.

Sure, the documented AUC at 24 h for COC(=O)N[C@H](C(=O)N1CCC[C@H]1c1nc2cc(F)c([C@H]3CC[C@H](c4cc5c(cc4F)nc([C@@H]4CCCN4C(=O)[C@@H](NC(=O)OC)[C@@H](C)OC)n5COP(=O)(O)O)N3c3cc(F)c(N4CCC(c5ccc(F)cc5)CC4)c(F)c3)cc2[nH]1)[C@@H](C)OC is 12.6

More entries:
For COC(=O)N[C@H](C(=O)N1CCC[C@H]1c1nc2cc([C@H]3CC[C@H](c4cc5nc([C@@H]6CCCN6C(=O)[C@@H](NC(=O)OC)[C@@H](C)OC)[nH]c5cc4F)N3c3cc(F)c(N4CCC(c5ccc(F)cc5)CC4)c(F)c3)c(F)cc2[nH]1)[C@@H](C)OC [PIBRENTASVIR] the compound record lists AUC at 24 h as 5170

* * *

Reported Stabilty by item:
# Experiment description: Stability of compound at pH 7.4 assessed as prodrug remaining level at 125 ug/ml incubated for 24 hrs by HPLC analysis
# Format: physicochemical
# Conditions used: buffer, pH 7.4, 24 h, at 125 µg/mL
Entry format: amount then unit.

Solved cases below.
Form: compound = COC(=O)N[C@H](C(=O)N1CCC[C@H]1c1nc2cc(F)c([C@H]3CC[C@H](c4cc5nc([C@@H]6CCCN6C(=O)[C@@H](NC(=O)OC)[C@@H](C)OC)n(COC(=O)[C@@H](N)C(C)C)c5cc4F)N3c3cc(F)c(N4CCC(c5ccc(F)cc5)CC4)c(F)c3)cc2[nH]1)[C@@H](C)OC ; Stabilty = 5%

// Stabilty lookup, compound = COC(=O)N[C@H](C(=O)N1CCC[C@H]1c1nc2cc(F)c([C@H]3CC[C@H](c4cc5nc([C@@H]6CCCN6C(=O)[C@@H](NC(=O)OC)[C@@H](C)OC)n(COC(=O)[C@@H](NC(=O)COP(=O)(O)O)C(C)C)c5cc4F)N3c3cc(F)c(N4CCC(c5ccc(F)cc5)CC4)c(F)c3)cc2[nH]1)[C@@H](C)OC , result: 31%

Value of measured Stabilty for the entry COC(=O)N[C@H](C(=O)N1CCC[C@H]1c1nc2cc(F)c([C@H]3CC[C@H](c4cc5c(cc4F)nc([C@@H]4CCCN4C(=O)[C@@H](NC(=O)OC)[C@@H](C)OC)n5COC(=O)CCCOP(=O)(O)O)N3c3cc(F)c(N4CCC(c5ccc(F)cc5)CC4)c(F)c3)cc2[nH]1)[C@@H](C)OC : 80%

Continuing:
Item: COC(=O)N[C@H](C(=O)N1CCC[C@H]1c1nc2cc(F)c([C@H]3CC[C@H](c4cc5nc([C@@H]6CCCN6C(=O)[C@@H](NC(=O)OC)[C@@H](C)OC)n(COC(=O)[C@@H](NC(=O)/C=C/C(=O)O)C(C)C)c5cc4F)N3c3cc(F)c(N4CCC(c5ccc(F)cc5)CC4)c(F)c3)cc2[nH]1)[C@@H](C)OC | Stabilty: 67%
